# METHOD_NOTES: Displacement of [3H]WY 14643 from human recombinant PPARalpha receptor at 10 uM after 120 mins by scintillation counting analysis relative to control
OBSERVED_PROPERTY: pIC50
By convention, pIC50 is the negative base-10 log of a molar concentration.

Short answer for "O=C(NNC(=S)Nc1ccc(Cl)c(Cl)c1)c1ccccc1O" : pIC50 was 7.28

---

# METHOD_NOTES: Inhibition of human recombinant full-length LDHA using sodium pyruvate as substrate after 60 mins by resazurin dye-based assay
OBSERVED_PROPERTY: IC50 (µM)
Answer format: numeric, µM implied, no suffix.

Short answer for "O=C(NNC(=S)Nc1ccc(Cl)c(Cl)c1)c1ccccc1O" : IC50 was 577
